System: HEK-293T
experiment.notes: Incucyte cell viability with HEK293T; note: filed as whole numbers so only -1 and 0 and 1 occur
Format: toxicity, cell-based
experimental.setup: human, 24 h, 10 µM, compound concentration 10 uM, replicate number 2, timepoint 24 hours
measured.quantity: Growth Rate

Worked examples follow.
# input compound: `CN(C)C(=O)Cn1cc(-c2nc(C3(c4ccc(-c5cnc(N)nc5)cc4)CC3)no2)cn1` ; wanted: its Growth Rate
1

And N#Cc1ccc(Nc2ccc3[nH]c(=O)[nH]c3c2)c(Cl)c1 [TP-021n] ?
1

And `COc1ccc(/C=C/CCCCOc2ccc(C(=O)c3cccc(C(=O)O)c3)cc2CCC(=O)O)cc1` ?
0

And `C[C@H](c1ccnc(Nc2nc3ccc(-c4cc(N(C)C)ncn4)cc3[nH]2)c1)N1CCN(C(=O)CC(F)(F)F)CC1` ?
1

And `C[C@H]1CCCN1Cc1nc2cc(NC(=O)c3ccc4cnccc4c3)ccc2[nH]1` ?
0

New cases:
# input compound: `CCCc1c(-c2ccc(O)cc2)nn(-c2ccc(O)cc2)c1-c1ccc(O)cc1` ; wanted: its Growth Rate
1

And `Cc1cnc(-c2cc(Cl)ccc2F)cc1-n1c(=O)n(CC(N)=O)c2cnccc21` ?
1

And `CC1=C(C#N)C(c2ccc3c(c2)c(NC(=O)c2ccccc2C)nn3C)C(C#N)=C(C)N1` ?
1

---

Measured Population Normal (%) by item
System: U2OS
experiment.notes: Multiplex assay against U2OS
Format: toxicity, cell-based
experimental.setup: human, 12 h, 10 µM, compound concentration 10 uM, replicate 1
Answer format: numeric, % implied, no suffix.

Worked examples follow.
Tell me reported Population Normal (%) for `c1ccc2oc(-c3csc(C4CCN(Cc5nc6ncccc6[nH]5)CC4)n3)cc2c1` , tested with U2OS.
96

And `CNC(=O)c1cc(Oc2ccc(NC(=O)Nc3cc(C(C)(C)C)nn3-c3ccc4ncccc4c3)c(F)c2)ccn1` ?
93

And `CCc1cc2c(cc1CC)CC(NC[C@H](O)c1ccc(O)c3[nH]c(=O)ccc13)C2` ?
95

And `CCOc1cc2ncc(C#N)c(Nc3ccc(OCc4cccc(F)c4)c(Cl)c3)c2cc1NC(=O)/C=C/CN(C)C` ?
94

New cases:
Tell me reported Population Normal (%) for `CC(=O)c1cc(-c2cc(C(=O)NC3CC3)ccc2C)c2ncccn12` , tested with U2OS.
93

---

Tested on: Fibroblast
experiment.notes: Multiplex assay against human fibroblast
Format: toxicity, cell-based
experimental.setup: 12 h, 1 µM, compound concentration 1 uM, replicate 2
Measured Population Pyknosed Nuclei (%) by item
Answer format: numeric, % implied, no suffix.

# input compound: `COc1cc(N2CCC(N(C)C)CC2)ccc1Nc1ncc(Cl)c(Nc2ccccc2P(C)(C)=O)n1` ; wanted: its Population Pyknosed Nuclei (%)
15

And `CNC(=O)c1cc(Oc2ccc(NC(=O)Nc3cc(C(C)(C)C)nn3-c3ccc4ncccc4c3)c(F)c2)ccn1` ?
10

And `Nc1nc2c(c(N3CCNCC3)n1)CCC1=C2[C@@H]2CCCC[C@@H]2O1` ?
18

New cases:
# input compound: `CNC(=O)c1nn(C)c2c1C(C)(C)Cc1cnc(Nc3ccc(N4CCN(C)CC4)cc3)nc1-2` ; wanted: its Population Pyknosed Nuclei (%)
1

And `O=C(O)c1ccc2cc(-c3ccc(O)c(C45CC6CC(CC(C6)C4)C5)c3)ccc2c1` ?
3

And CCC(=O)O[C@]1(C(=O)SCF)[C@H](C)C[C@H]2[C@@H]3C[C@H](F)C4=CC(=O)C=C[C@]4(C)[C@@]3(F)[C@@H](O)C[C@@]21C [FLUTICASONE PROPIONATE] ?
16

And `CNc1oc(-c2cccc3ccccc23)nc1C#N` ?
2

And `CC(=O)c1cc(-c2cc(C(=O)NC3CC3)ccc2C)c2ncccn12` ?
6

---

Tested on: U2OS
experiment.notes: Multiplex assay against U2OS
Format: toxicity, cell-based
experimental.setup: human, 12 h, 10 µM, compound concentration 10 uM, replicate 1
Classify as follows. Reported Population Apoptotic (%) greater than or equal to 50%: 1. Reported Population Apoptotic (%) below: -1.

Determine whether measured Population Apoptotic (%) meets or exceeds 50% for `O=C(O)c1ccc2cc(-c3ccc(O)c(C45CC6CC(CC(C6)C4)C5)c3)ccc2c1`
1

---

Tested on: Fibroblast
experiment.notes: Multiplex assay against human fibroblast
Assay type: toxicity, cell-based
experimental.setup: 24 h, 10 µM, compound concentration 10 uM, replicate 1
measured.quantity: Population Apoptotic (%)

Tell me reported Population Apoptotic (%) for `COc1cc2c(NC3CCN(C(C)C)CC3)nc(N3CCC(F)(F)CC3)nc2cc1OCCCN1CCCC1` , tested with Fibroblast.
63%

And O=C(O)c1ccc2c(c1)nc(Nc1cccc(Cl)c1)c1ccncc12 [SILMITASERTIB] ?
53%

And CCOc1cc2ncc(C#N)c(Nc3ccc(OCc4cccc(F)c4)c(Cl)c3)c2cc1NC(=O)/C=C/CN(C)C [HKI-357] ?
73%

New cases:
Tell me reported Population Apoptotic (%) for `CNc1oc(-c2cccc3ccccc23)nc1C#N` , tested with Fibroblast.
93%

And CC(=O)O[C@H]1C(=O)[C@@]2(C)[C@H]([C@H](OC(=O)c3ccccc3)[C@]3(O)C[C@H](OC(=O)[C@H](O)[C@@H](NC(=O)c4ccccc4)c4ccccc4)C(C)=C1C3(C)C)[C@]1(OC(C)=O)CO[C@@H]1C[C@@H]2O [PACLITAXEL] ?
71% [middle of 4 runs]

And CCc1cc2c(cc1CC)CC(NC[C@H](O)c1ccc(O)c3[nH]c(=O)ccc13)C2 [INDACATEROL] ?
71%

And `Cl.Cl.Nc1ncnc2c1c(-c1cccc(OCc3ccccc3)c1)cn2[C@H]1C[C@@H](CN2CCC2)C1` ?
84%

---

Tested on: HEK-293T
experiment.notes: Multiplex assay against HEK293T
Assay type: toxicity, cell-based
experimental.setup: human, 48 h, 1 µM, compound concentration 1 uM, replicate 1
measured.quantity: Population Pyknosed Nuclei (%)
Answer format: numeric, % implied, no suffix.

# input molecule: `CC(C)N1CCC(C)(C)c2cc(C#Cc3ccc(C(=O)O)cc3)ccc21` ; wanted: its Population Pyknosed Nuclei (%)
28

And `CNc1oc(-c2cccc3ccccc23)nc1C#N` ?
7

And `Cc1cc2c(cc1N1C(=O)c3cccc4c(CCCO)ccc(c34)C1=O)n(C)c(=O)n2C` ?
49

And Cc1nc(Cc2cccc(C(F)(F)F)c2)sc1-c1ccc(C(N)=O)nc1 [TP-024n] ?
37

And `CC(=O)c1cc(-c2cc(C(=O)NC3CC3)ccc2C)c2ncccn12` ?
41

And CCn1c(-c2nonc2N)nc2cnc(Oc3cccc(NC(=O)c4ccc(OCCN5CCOCC5)cc4)c3)cc21 [GSK-269962A] ?
58

And `COc1cc2c(NC3CCN(C(C)C)CC3)nc(N3CCC(F)(F)CC3)nc2cc1OCCCN1CCCC1` ?
38

And `Nc1ccc(C(=O)Nc2cccc(-c3nc(N4CCOCC4)c4oc5ncccc5c4n3)c2)cn1` ?
40

And CCC(=O)O[C@]1(C(=O)SCF)[C@H](C)C[C@H]2[C@@H]3C[C@H](F)C4=CC(=O)C=C[C@]4(C)[C@@]3(F)[C@@H](O)C[C@@]21C [FLUTICASONE PROPIONATE] ?
35

And `COc1ccc(NS(=O)(=O)c2sc3ccc(Cl)cc3c2C)cc1N1CCNCC1.Cl` ?
25

And `CCCn1c(=O)c2[nH]c(C34CC5CC(CC3C5)C4)nc2n(CCC)c1=O` ?
52

And `Cl.Cl.Nc1ncnc2c1c(-c1cccc(OCc3ccccc3)c1)cn2[C@H]1C[C@@H](CN2CCC2)C1` ?
57

And `CCc1cc2c(cc1CC)CC(NC[C@H](O)c1ccc(O)c3[nH]c(=O)ccc13)C2` ?
14

And `Nc1nc2c(c(N3CCNCC3)n1)CCC1=C2[C@@H]2CCCC[C@@H]2O1` ?
11

---

Tested on: Fibroblast
experiment.notes: Incucyte cell viability with human fibroblast; note: filed as whole numbers so only -1 and 0 and 1 occur
Type: toxicity, cell-based
experimental.setup: 18 h, 10 µM, compound concentration 10 uM, replicate number 1, timepoint 18 hours
Measured Growth Rate by item
Number only, please.

Worked examples follow.
Tell me reported Growth Rate for `O=C(O)c1ccc2c(c1)nc(Nc1cccc(Cl)c1)c1ccncc12` , tested with Fibroblast.
0

And `CNC(=O)c1cc(Oc2ccc(NC(=O)Nc3cc(C(C)(C)C)nn3-c3ccc4ncccc4c3)c(F)c2)ccn1` ?
0

New cases:
Tell me reported Growth Rate for `CNc1nc(Nc2cnn([C@H]3CCN(C4COC4)C[C@@H]3F)c2Cl)ncc1C(F)(F)F` , tested with Fibroblast.
1

And COc1ccc(COc2ccc(Cc3cnc(N)nc3N)cc2OC)cc1 [GW632580X] ?
1
